PROTOCOL_DESCRIPTION: Pharmacokinetics assay in rats, intragastric administration, plasma by LC/MS/MS
Assay type: in vivo, Sprague-Dawley (SD) rats
CONDITION_DETAILS: both sexes, Sprague-Dawley, rat, plasma, po, SD rats, 10 mg/kg, read-out: Apparent Distribution Volume Vz/F
Procedure: Rats were used as test animals. […] The pharmacokinetic behavior of the compounds of the present invention was studied and evaluated in rats. 56 Healthy adult Sprague-Dawley (SD) rats, half male and half female, purchased from SINO-BRITSH SIPPR/BK LAB. The appropriate amount of test compounds were weighed and mixed with 1.0 mL of dimethyl sulfoxide to prepare a 1.0 mg/mL suspension. […]
Response key: class 1 means Vd/F >= 10 L/kg; class 0 means Vd/F < 10 L/kg.

Evaluate CN(c1ncnc2[nH]ccc12)[C@H]1C[C@@H]2CN(C(=O)CO)C[C@@H]2C1 : Vd/F at minimum 10 L/kg?
class 1

Evaluate CN(c1ncnc2[nH]ccc12)[C@H]1C[C@@H]2CN(C(=O)Nc3nc(C4CC4)ns3)C[C@@H]2C1 : Vd/F at minimum 10 L/kg?
class 1

Evaluate CN(c1ncnc2[nH]cc(F)c12)[C@H]1C[C@@H]2CN(C(=O)CO)C[C@@H]2C1 : Vd/F at minimum 10 L/kg?
class 1

Evaluate CN(c1ncnc2[nH]ccc12)[C@H]1C[C@H]2CNC(=O)C[C@H]2C1 : Vd/F at minimum 10 L/kg?
class 0

Evaluate C[C@H](O)C(=O)N1C[C@H]2C[C@H](N(C)c3ncnc4[nH]ccc34)C[C@H]2C1 : Vd/F at minimum 10 L/kg?
class 0

Evaluate COc1nsc(NC(=O)N2C[C@H]3C[C@H](N(C)c4ncnc5[nH]ccc45)C[C@H]3C2)n1 : Vd/F at minimum 10 L/kg?
class 0

Evaluate CN(c1ncnc2[nH]ccc12)[C@H]1C[C@@H]2CN(C(=O)CCC#N)C[C@@H]2C1 : Vd/F at minimum 10 L/kg?
class 0

* * *

PROTOCOL_DESCRIPTION: Pharmacokinetics assay in rats, intragastric administration, plasma by LC/MS/MS
Assay type: in vivo, Sprague-Dawley (SD) rats
CONDITION_DETAILS: both sexes, Sprague-Dawley, rat, plasma, po, SD rats, 10 mg/kg, read-out: Clearance CL/F
Lab note: compare CL/F with 30 mL/min/kg, writing YES if less and NO if equal or more.

Decide: CL/F of CN(c1ncnc2[nH]ccc12)[C@H]1C[C@@H]2CN(C(=O)CCC#N)C[C@@H]2C1 strictly below 30 mL/min/kg?
NO

Decide: CL/F of CC(=O)N1CC[C@H]2CC(N(C)c3ncnc4[nH]ccc34)C[C@H]2C1 (some centres unmarked) strictly below 30 mL/min/kg?
NO

Decide: CL/F of CN(c1ncnc2[nH]ccc12)[C@@H]1CC2CNC(=O)CC2C1 (some centres unmarked) strictly below 30 mL/min/kg?
NO

Decide: CL/F of CN(c1ncnc2[nH]ccc12)[C@H]1C[C@H]2CNC(=O)C[C@H]2C1 strictly below 30 mL/min/kg?
NO

Decide: CL/F of CCc1nsc(NC(=O)N2C[C@H]3C[C@H](N(C)c4ncnc5[nH]ccc45)C[C@H]3C2)n1 strictly below 30 mL/min/kg?
NO

Decide: CL/F of C[C@H](O)C(=O)N1C[C@H]2C[C@H](N(C)c3ncnc4[nH]ccc34)C[C@H]2C1 strictly below 30 mL/min/kg?
NO

Decide: CL/F of COc1nsc(NC(=O)N2C[C@H]3C[C@H](N(C)c4ncnc5[nH]ccc45)C[C@H]3C2)n1 strictly below 30 mL/min/kg?
YES

Decide: CL/F of CN(c1ncnc2[nH]ccc12)[C@H]1C[C@@H]2CN(C(=O)CO)C[C@@H]2C1 strictly below 30 mL/min/kg?
NO

Decide: CL/F of CN(c1ncnc2[nH]ccc12)[C@H]1C[C@@H]2CN(C(=O)Nc3nc(OCC(C)(C)O)ns3)C[C@@H]2C1 strictly below 30 mL/min/kg?
YES

Decide: CL/F of CN(c1ncnc2[nH]cc(F)c12)[C@H]1C[C@@H]2CN(C(=O)CO)C[C@@H]2C1 strictly below 30 mL/min/kg?
NO

Decide: CL/F of CN(c1ncnc2[nH]ccc12)[C@H]1C[C@@H]2CN(C(=O)Nc3nc(C4CC4)ns3)C[C@@H]2C1 strictly below 30 mL/min/kg?
NO
